Data provenance: patent US20240174621A1

Test: CSF Kp,uu measurement for brain penetration, rat
Format: in vivo
Details: rat, CSF / unbound plasma; Multiple oral dosing @ 300 mg/kg/day (2-week DRF), 3 h post last dose

{"Molecular String": "Cn1cnc2ccc(Oc3c(F)ccc(NS(=O)(=O)N4CC[C@@H](F)C4)c3C#N)cc2c1=O", "Kp uu at 3 h": "≥ 1"}

* * *

Test: CSF Kp,uu measurement for brain penetration, rat
Type: in vivo
Details: rat, CSF / unbound plasma; Single oral dose 20 mg/kg

{"Molecular String": "Cn1cnc2ccc(Oc3c(F)ccc(NS(=O)(=O)N4CC[C@@H](F)C4)c3C#N)cc2c1=O", "Kp uu": "≥ 1"}

* * *

Test system: P-ERK in A375 cells expressing V600E mutated BRAF
Test: cells
Format: cell-based
Conditions: Homo sapiens, A-375, 1 h, read-out: pERK IC50 (nM) A375
# reported IC50; entries follow
Measurement Label: IC50

{"Molecular String": "CN(C)S(=O)(=O)Nc1ccc(Cl)c(Oc2ccc3ncn(C)c(=O)c3c2)c1C#N", "Result": "406 nM"}
{"Molecular String": "CCCS(=O)(=O)Nc1ccc(F)c(Oc2ccc3ncn(C)c(=O)c3c2)c1C#N", "Result": "1.1 nM"}
{"Molecular String": "Cn1cnc2ccc(Oc3c(Cl)ccc(NS(=O)(=O)N4CCCC4)c3C#N)cc2c1=O", "Result": "311 nM"}

* * *

Test: Plasma protein binding
Format: in vitro ADME
Settings: mouse, rat, minipig, monkey, human, plasma

{"Molecular String": "Cn1cnc2ccc(Oc3c(F)ccc(NS(=O)(=O)N4CC[C@@H](F)C4)c3C#N)cc2c1=O", "fraction unbound": "≤ 0.01"}
